test system: TK-10; assay: NCI tumour cell line growth inhibition, 48 h
Calls of active or inactive are those of the source. Cut-off read from the data, not from the text of the source: active = GI50 up to about 1.1 µM and inactive = higher.
ATTRIBUTE MEASURED: GI50

| MOLECULE | VALUE MEASURED |
| --- | --- |
| CC1=CC(C)C(C)N(CC2=NCCN2)c2ccccc21 (centres undefined) | 54.2 µM (inactive) |
| CSc1nc(O)c(C#N)c(-c2ccc(Cl)cc2)n1 | > 100 µM (inactive) |
| Cc1c(/C=N/NC(=S)Nc2ccc([N+](=O)[O-])cc2)c(=O)n(-c2ccccc2)n1C | 11.8 µM (inactive) |
| CO[C@]1(c2ccc([N+](=O)[O-])cc2)Oc2ccccc2C(=O)[C@@]1(Nc1ccc(C=O)cc1)OC | > 10 µM (inactive) |
| CC1(C)CCC[C@@]2(C)C1CC[C@@]1(CO)O[C@H](C3=CC(=O)OC3O)C[C@H]12 (some centres undefined) | 19.7 µM (inactive) |

For this molecule ( CCOC(=O)CO/N=C\C1=CC(=O)C2CC1C2(C)C (centres undefined) ), measured GI50 is > 100 µM (inactive)

Form field GI50, entry O=P1(Oc2ccccc2)N=P(c2ccccc2)(c2ccccc2)C=C(c2ccc(Cl)cc2)N1 (centres undefined) : 13.1 µM (inactive)

Recorded GI50 (molecule `N#Cc1ccccc1Nc1ccccc1S` ): > 100 µM (inactive)

// recorded GI50 for `CC[C@H](O)[C@H](C)C=C1SCCCS1` : > 100 µM (inactive)

Measured GI50 of CC(C)(Br)C(Br)CC/C(=C/CBr)CBr.CC(C)(Br)C(Br)CC/C(=C\CBr)CBr (centres undefined) : 8.77 µM (inactive)

* * *

Listed here are molecules together with their documented GI50.
test system: PC-3; assay: NCI tumour cell line growth inhibition, 48 h
Active and inactive are the calls of the source. No stated cut-off is given here; in the data, active = GI50 up to about 1.1 µM and inactive = higher. Square brackets hold non-standard residues; d marks the D form. Peptide text beside a SMILES is read from it. pGlu = O=C1CC[C@@H](C(=O)O)N1; Thz = O=C(O)[C@@H]1CSCN1

// field: GI50; key: `Cc1cc(S(=O)(=O)Nc2nnc3cc(C(F)(F)F)cc(C)n23)c(S)cc1Cl` ; value = > 95.3 µM (inactive)

GI50 in this record for `CCOP(=O)(OCC)/C(C#N)=C/c1ncc[nH]1` : > 100 µM (inactive)

The recorded GI50 for entry `O=[N+]([O-])c1ccc2nc(Cl)n[n+]([O-])c2c1` equals 13 µM (inactive)

Just so you know, measured GI50 for O=C1CC[C@@H](C(=O)N2CSC[C@H]2C(=O)O)N1 [PIDOTIMOD] ([pGlu]-[Thz]-OH) came out at > 100 µM (inactive)

GET /value?item= `CNC(=O)/C(C#N)=C(\N)N1CCCC1` &field=GI50 returns > 100 µM (inactive)

* * *

system: UACC-257; assay: NCI tumour cell line growth inhibition, 48 h
The source made the active and inactive calls. Cut-off read from the data, not from the text of the source: active = GI50 up to about 1.1 µM and inactive = higher.
ATTRIBUTE MEASURED: GI50

Worked set:
| COMPOUND | GI50 |
| --- | --- |
| CC(C)C1OC(/C=C/c2ccccc2)OCC1(C)C (stereo unspecified) | 24.8 µM (inactive) |
| Cc1cccc(/C=N/NC(=S)NCCc2ccccn2)n1 | 33.8 µM (inactive) |
| CO[C@]1(c2ccc([N+](=O)[O-])cc2)Oc2ccccc2C(=O)[C@@]1(Nc1ccc(C=O)cc1)OC | > 10 µM (inactive) |
| CC(CCc1ccccc1)NCC(O)n1c(/N=N/N(C)C)nc2c1c(=O)n(C)c(=O)n2C (stereo unspecified) | > 100 µM (inactive) |
| COc1ccc(C)cc1-c1ccc(-c2cc(C)ccc2OC)o1 | > 100 µM (inactive) |

// field: GI50; key: `C[N+](C)(C)CCC(=O)CC[N+](C)(C)C` ; value = 17.6 µM (inactive)

What the record says about `CO/C=C(\Br)c1ccc2c(c1)OCO2` : GI50 is > 100 µM (inactive)

For record `O=C(NCCc1n[nH]c2c1C(=O)C=C(Nc1ccccc1)C2=O)OCc1ccccc1` the listed GI50 is > 100 µM (inactive)

GI50 measured on `COc1cc2c(c(OC)c1OC)C(=O)c1c(O)cc(C)c(OC)c1C2=O` = 54.6 µM (inactive)
